Assay read-out IC50; system under study: SARS‐CoV PL^pro (Severe acute respiratory syndrome coronavirus, UniProt P0C6X7).
Your answer should be a plain number; it is taken to be in nM.

Please fill in: IC50 reported for C1=CCCC=CCC1.Cn1[c-][n+](C)c(-c2ccccc2)c1.[Br-].[Rh+] [Rh‐9] = 6700

Please fill in: IC50 reported for O=C(NC1C(O)OC(CO)C(O)C1O)C1CCN(C(=S)[S][Au][PH](c2ccccc2)(c2ccccc2)c2ccccc2)CC1 (mixture of isomers) [Au‐36] = 330

Please fill in: IC50 reported for CO[C@H]1O[C@H](CO)[C@@H](O)[C@H](O)[C@H]1NC(=O)C1CCN(C(=S)[S-])CC1.[Au+3].[Br-].[Br-] [Au‐34] = 1150

---

TEST_SYSTEM: interaction of the RBD of the SARS‐CoV‐2 S protein with the ACE2 receptor (Severe acute respiratory syndrome coronavirus 2, UniProt P0DTC2)
SETUP_CONDITIONS: read-out: IC50 as inhibitors of the S/ACE2 interaction
ASSAY_READOUT: pIC50
# log scale: pIC50 equals minus log10 of the concentration in mol/L

Please fill in: pIC50 reported for [Cl-].[Cl-].[Ti+4].c1cc[cH-]c1.c1cc[cH-]c1 [Ti‐1, titanocene dichloride, reference compound] = 5.41

---

Can you tell me inhibition of SARS-CoV-2 PLpro for the items I'm about to list?
TEST_SYSTEM: SARS‐CoV‐2 PL^pro (Severe acute respiratory syndrome coronavirus 2, UniProt P0DTD1)
ASSAY_REMARKS: biochemical
Format: biochemical
SETUP_CONDITIONS: 1 µM
Your answer should be a plain number; it is taken to be in %.

Please fill in: inhibition of SARS-CoV-2 PLpro reported for CC[n+]1[c-]n(CC2(c3ccc(Cl)cc3Cl)OCC(COc3ccc(N4CCN(C(C)=O)CC4)cc3)O2)cc1.[Au+].[Cl-] (stereo not drawn) = 2

Please fill in: inhibition of SARS-CoV-2 PLpro reported for Cn1cc(-c2ccccc2)n(C)[c]1=[Au][Cl] = 23

Please fill in: inhibition of SARS-CoV-2 PLpro reported for CO[C@H]1O[C@H](CO)[C@@H](O)[C@H](O)[C@H]1NC(=O)C1CCN(C(=S)[S-])CC1.[Au+3].[Br-].[Br-] = 98

Please fill in: inhibition of SARS-CoV-2 PLpro reported for C1=CCCC=CCC1.Cn1[c-][n+](C)c(-c2ccc(F)cc2)c1.[Br-].[Rh+] = 48

Please fill in: inhibition of SARS-CoV-2 PLpro reported for C1=CCCC=CCC1.CCn1[c-][n+](CC)c(-c2ccc(F)cc2)c1.[I-].[Rh+] = 19

Please fill in: inhibition of SARS-CoV-2 PLpro reported for [Cl-].[Cl-].[Ti+4].c1cc[cH-]c1.c1cc[cH-]c1 [Ti‐1, titanocene dichloride, reference compound] = -13

Please fill in: inhibition of SARS-CoV-2 PLpro reported for C1=CCCC=CCC1.CCn1[c-][n+](CC)c(-c2ccccc2)c1.[I-].[Rh+] = 15

Please fill in: inhibition of SARS-CoV-2 PLpro reported for CC(C)n1[c]([Au-][c]2n(C(C)C)c3ccccc3[n+]2C(C)C)[n+](C(C)C)c2ccccc21.[Br-] = 7

Please fill in: inhibition of SARS-CoV-2 PLpro reported for Cc1cn(C/C=C/[c-]2cccc2)c(=O)[nH]c1=O.Cc1cn(C/C=C/[c-]2cccc2)c(=O)[nH]c1=O.[Fe+2] = -8

Please fill in: inhibition of SARS-CoV-2 PLpro reported for CCn1cc(-c2ccccc2)[n+](CC)[c]1[Au-][c]1n(CC)cc(-c2ccccc2)[n+]1CC.[I-] = -10

Please fill in: inhibition of SARS-CoV-2 PLpro reported for C1=CCCC=CCC1.Cn1[c-][n+](C)c(-c2ccc(F)cc2)c1.[Cl-].[Rh+] = 45

Please fill in: inhibition of SARS-CoV-2 PLpro reported for [Cl][Ti]([Cl])([Cl])[Cl] [Ti‐2, titanium(IV) tetrachloride, reference compound] = -3

Please fill in: inhibition of SARS-CoV-2 PLpro reported for Cn1[c]([Au-][c]2n(C)c3ccccc3[n+]2C)[n+](C)c2ccccc21.[I-] = 10

Please fill in: inhibition of SARS-CoV-2 PLpro reported for CO[C@H]1O[C@H](CNC(=O)C2CCN(C(=S)[S-])CC2)[C@@H](O)[C@H](O)[C@H]1O.[Au+3].[Br-].[Br-] = 99

Please fill in: inhibition of SARS-CoV-2 PLpro reported for [Cl][Au-][c]1n(Cc2ccccc2)cc(-c2ccccc2)[n+]1Cc1ccccc1 = 13

Please fill in: inhibition of SARS-CoV-2 PLpro reported for Cc1cn(CC=C[c-]2cccc2)c(=O)[nH]c1=O.[Ru+2].c1cc[cH-]c1 = -17

Please fill in: inhibition of SARS-CoV-2 PLpro reported for Cn1cc(-c2ccccc2)[n+](C)[c]1[Au-][c]1n(C)cc(-c2ccccc2)[n+]1C.[I-] = -17

Please fill in: inhibition of SARS-CoV-2 PLpro reported for O=[N+]([O-])[O-].[Ag+] [Ag‐1, silver nitrate, reference compound] = 72

Please fill in: inhibition of SARS-CoV-2 PLpro reported for C[CH2][Hg][S]c1ccccc1C(=O)[O-].[Na+] [Hg‐1, thiomersal, reference compound] = 9

Please fill in: inhibition of SARS-CoV-2 PLpro reported for CCn1[c]([Au-][S]C(=S)N2CCC(C(=O)NC3C(O)OC(CO)C(O)C3O)CC2)[n+](CC)c2ccccc21 (mixture of isomers) = 58

Please fill in: inhibition of SARS-CoV-2 PLpro reported for Cc1ccc(C(C)C)cc1.Cc1ccc2c(c1)[n+](Cc1ccccc1)[c-]n2Cc1ccccc1.[Br-].[Br-].[Ru+2] = 5

Please fill in: inhibition of SARS-CoV-2 PLpro reported for C1=CCCC=CCC1.CCn1[c-][n+](CC)c(-c2ccccc2)c1.[Cl-].[Rh+] = -4

Please fill in: inhibition of SARS-CoV-2 PLpro reported for C1=CCCC=CCC1.CCn1[c-][n+](CC)c(-c2ccccc2)c1.[Br-].[Rh+] = 17

Please fill in: inhibition of SARS-CoV-2 PLpro reported for O=C(NC1C(O)OC(CO)C(O)C1O)C1CCN(C(=S)[S][Au][PH](c2ccccc2)(c2ccccc2)c2ccccc2)CC1 (mixture of isomers) = 74

Please fill in: inhibition of SARS-CoV-2 PLpro reported for Cc1ccc(C(C)C)cc1.[Cl-].[Cl-].[Ru+2].[c-]1n(Cc2ccccc2)cc[n+]1Cc1ccccc1 = 10

Please fill in: inhibition of SARS-CoV-2 PLpro reported for C1=CCCC=CCC1.CCn1[c-][n+](CC)c(-c2ccc(F)cc2)c1.[Cl-].[Rh+] = 17

Please fill in: inhibition of SARS-CoV-2 PLpro reported for CC(C)n1cc(-c2ccccc2)n(C(C)C)[c]1=[Au][Cl] = 41
